Target: hERG potassium channel (Homo sapiens)
Construct: expressed in transfected cells; host or cells: HEK293
Sequence (Q12809 whole entry): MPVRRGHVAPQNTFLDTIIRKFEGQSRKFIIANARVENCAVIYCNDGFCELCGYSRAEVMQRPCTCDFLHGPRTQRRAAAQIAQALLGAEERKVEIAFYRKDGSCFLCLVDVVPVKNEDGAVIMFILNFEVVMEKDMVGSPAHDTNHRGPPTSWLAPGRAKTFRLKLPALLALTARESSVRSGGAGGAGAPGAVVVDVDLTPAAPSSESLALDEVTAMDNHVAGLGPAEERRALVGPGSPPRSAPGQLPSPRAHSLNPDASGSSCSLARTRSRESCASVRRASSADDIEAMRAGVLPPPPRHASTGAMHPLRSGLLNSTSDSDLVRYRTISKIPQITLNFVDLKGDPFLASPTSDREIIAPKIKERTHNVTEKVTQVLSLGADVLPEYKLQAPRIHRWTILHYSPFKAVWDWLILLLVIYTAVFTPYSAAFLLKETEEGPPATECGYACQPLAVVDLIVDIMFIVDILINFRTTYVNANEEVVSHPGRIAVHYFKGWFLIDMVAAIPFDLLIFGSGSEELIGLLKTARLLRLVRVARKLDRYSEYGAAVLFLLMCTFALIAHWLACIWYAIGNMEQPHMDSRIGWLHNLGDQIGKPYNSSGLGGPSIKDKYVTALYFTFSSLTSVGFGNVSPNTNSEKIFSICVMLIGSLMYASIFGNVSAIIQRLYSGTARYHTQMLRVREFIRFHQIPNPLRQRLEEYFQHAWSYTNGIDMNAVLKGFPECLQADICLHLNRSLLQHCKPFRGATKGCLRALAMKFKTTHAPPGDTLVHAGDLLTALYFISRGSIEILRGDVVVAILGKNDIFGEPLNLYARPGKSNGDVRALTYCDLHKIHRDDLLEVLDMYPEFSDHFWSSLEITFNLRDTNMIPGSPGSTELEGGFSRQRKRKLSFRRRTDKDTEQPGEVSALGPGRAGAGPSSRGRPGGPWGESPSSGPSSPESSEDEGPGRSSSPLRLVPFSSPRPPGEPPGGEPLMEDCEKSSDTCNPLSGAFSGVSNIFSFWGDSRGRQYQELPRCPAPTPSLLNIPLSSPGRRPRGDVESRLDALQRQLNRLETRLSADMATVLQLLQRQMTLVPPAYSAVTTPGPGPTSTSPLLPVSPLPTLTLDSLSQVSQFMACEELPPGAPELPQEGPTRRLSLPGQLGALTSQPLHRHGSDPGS
Experiment: hERG patch clamp assay
Type: cell-based
Settings: HEK293 cells stably transfected with hERG cDNA, pH 7.4, Conc. 10 μM, peak tail currents, read-out: % Inhibition (Mean ± SE)
readout: inhibition at 10 μM (%)
Report only the number, with the unit % understood.

Record request: inhibition at 10 μM value, item CN1CC2CCC(C1)N2C(=O)[C@]12C[C@H]1c1cc(F)ccc1-c1c(C3CCCCC3)c3ccc(C(=O)NS(=O)(=O)C4(C)CC4)cc3n1C2
30.5
